Consider molecules characterized by their log10 of IC50 with HKU4-3CL^pro (Bat coronavirus HKU4 (BtCoV) (BtCoV/HKU4/2004), UniProt P0C6W3).
Sequence (P0C6W3 3292-3597 limits assumed): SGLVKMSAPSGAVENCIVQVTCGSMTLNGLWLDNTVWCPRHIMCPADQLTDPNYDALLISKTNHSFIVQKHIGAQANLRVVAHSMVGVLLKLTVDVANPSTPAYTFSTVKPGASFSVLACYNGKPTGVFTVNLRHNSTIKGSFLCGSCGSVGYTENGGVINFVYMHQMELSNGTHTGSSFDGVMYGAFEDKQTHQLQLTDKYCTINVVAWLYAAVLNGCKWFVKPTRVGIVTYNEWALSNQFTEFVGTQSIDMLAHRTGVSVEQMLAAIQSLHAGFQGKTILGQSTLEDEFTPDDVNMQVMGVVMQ
log10 IC50, µM

molecule	log10 of IC50
COc1cccc(C(C(=O)NCc2ccccc2)N(C(=O)Cn2nnc3ccccc32)c2ccc(NC(=O)C(C)C)cc2)c1 (stereo not shown) [Compound 14]	0.38
CC(C)Cc1ccc(N(C(=O)c2c[nH]cn2)C(C(=O)NC(C)(C)C)c2cccnc2)cc1 (stereo not shown) [Compound 38]	0.89
CC(C)(C)NC(=O)C(c1ccsc1)N(C(=O)Cn1cnc2ccccc21)c1ccc(NC(=O)C2CC2)cc1 (stereo not shown) [Compound 27]	0.98
O=C(Nc1ccc(N(C(=O)Cn2nnc3ccccc32)C(C(=O)NC2CCCC2)c2ccsc2)cc1)C1CC1 (stereo not shown) [Compound 33]	-0.30
O=C(Nc1ccc(N(C(=O)Cn2nnc3ccccc32)C(C(=O)NC2CC2)c2ccsc2)cc1)C1CC1 (stereo not shown) [Compound 32]	-0.10
CC(C)NC(=O)C(c1ccsc1)N(C(=O)Cn1nnc2ccccc21)c1ccc(NC(=O)C2CC2)cc1 (stereo not shown) [Compound 29]	0.30

Now consider a different molecule.
Problem: Fill in the recorded log10 of IC50 for this molecule, with HKU4-3CL^pro (Bat coronavirus HKU4 (BtCoV) (BtCoV/HKU4/2004), UniProt P0C6W3) as test system: CC(C)(C)c1ccc(N(C(=O)c2c[nH]cn2)C(C(=O)NC2CCCC2)c2cccnc2)cc1 (stereo not shown) [Compound 47]
Result: 0.28

* * *

- target-desc: HKU4-3CL^pro (Bat coronavirus HKU4 (BtCoV) (BtCoV/HKU4/2004), UniProt P0C6W3)
pIC50 by entry:
Conceptually, pIC50 converts a concentration in mol/L into minus its log10.

Before answering, review these 3 worked examples.
compound	target-desc	measurement
O=C(Nc1ccc(N(C(=O)Cn2nnc3ccccc32)C(C(=O)NC2CCCCC2)c2ccsc2)cc1)C1CC1 (stereo not shown)	HKU4-3CL^pro (Bat coronavirus HKU4 (BtCoV) (BtCoV/HKU4/2004), UniProt P0C6W3)	6.15
CC(C)(C)NC(=O)C(c1ccsc1)N(C(=O)Cn1nnc2ccccc21)c1ccc(NC(=O)C2CC2)cc1 (stereo not shown) [Compound 2P, reference compound]	HKU4-3CL^pro (Bat coronavirus HKU4 (BtCoV) (BtCoV/HKU4/2004), UniProt P0C6W3)	5.42
CC(C)C(=O)Nc1ccc(N(C(=O)Cn2nnc3ccccc32)C(C(=O)NCc2cccnc2)c2cccc(F)c2)cc1 (stereo not shown)	HKU4-3CL^pro (Bat coronavirus HKU4 (BtCoV) (BtCoV/HKU4/2004), UniProt P0C6W3)	5.70

Problem: For HKU4-3CL^pro (Bat coronavirus HKU4 (BtCoV) (BtCoV/HKU4/2004), UniProt P0C6W3), provide pIC50 of CC(C)CNC(=O)C(c1cccnc1)N(C(=O)c1c[nH]cn1)c1ccc(C(C)(C)C)cc1 (stereo not shown) please.
Result: 5.34

* * *

SARS-3CL^pro (Severe acute respiratory syndrome coronavirus (SARS-CoV), UniProt P0C6X7) measurements of pIC50, listed per entry.
Note on pIC50: it is the negative log10 of concentration, concentration in mol/L.

Sample answers from the record:
compound	target-desc	measurement
CC(C)CNC(=O)C(c1cccnc1)N(C(=O)c1c[nH]cn1)c1ccc(C(C)(C)C)cc1 (stereo not drawn) [Compound 43]	SARS-3CL^pro (Severe acute respiratory syndrome coronavirus (SARS-CoV), UniProt P0C6X7)	5.23
CC(C)Cc1ccc(N(C(=O)c2c[nH]cn2)C(C(=O)NC(C)(C)C)c2cccnc2)cc1 (stereo not drawn) [Compound 38]	SARS-3CL^pro (Severe acute respiratory syndrome coronavirus (SARS-CoV), UniProt P0C6X7)	5.15

# input for lookup
Problem: Value lookup for pIC50; key = CC(C)(C)NC(=O)C(c1cccnc1)N(C(=O)c1c[nH]cn1)c1ccc(C2CCCCC2)cc1 (stereo not drawn) [Compound 42]
Result: 5.20

Values compiled from patent US9975885B2.
